target: OR28/OR7 (Anopheles gambiae, UniProt A0A1S4GFY3+Q7QCC7); test: Ca2+-imaging of stable HEK293T cell line OR28/OR7; type: cell-based
Sequence (A0A1S4GFY3 entry or part of it): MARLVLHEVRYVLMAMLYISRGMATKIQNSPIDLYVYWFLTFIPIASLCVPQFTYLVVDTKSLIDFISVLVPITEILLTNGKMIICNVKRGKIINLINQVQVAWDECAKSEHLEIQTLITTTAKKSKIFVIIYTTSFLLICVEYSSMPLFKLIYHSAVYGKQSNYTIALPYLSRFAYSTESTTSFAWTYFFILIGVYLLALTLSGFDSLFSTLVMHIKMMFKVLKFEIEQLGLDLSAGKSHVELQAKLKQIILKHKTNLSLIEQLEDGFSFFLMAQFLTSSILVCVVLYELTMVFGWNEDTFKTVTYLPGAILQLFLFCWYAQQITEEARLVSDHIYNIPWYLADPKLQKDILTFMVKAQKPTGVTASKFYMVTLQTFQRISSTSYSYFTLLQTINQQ
Sequence (Q7QCC7 whole entry): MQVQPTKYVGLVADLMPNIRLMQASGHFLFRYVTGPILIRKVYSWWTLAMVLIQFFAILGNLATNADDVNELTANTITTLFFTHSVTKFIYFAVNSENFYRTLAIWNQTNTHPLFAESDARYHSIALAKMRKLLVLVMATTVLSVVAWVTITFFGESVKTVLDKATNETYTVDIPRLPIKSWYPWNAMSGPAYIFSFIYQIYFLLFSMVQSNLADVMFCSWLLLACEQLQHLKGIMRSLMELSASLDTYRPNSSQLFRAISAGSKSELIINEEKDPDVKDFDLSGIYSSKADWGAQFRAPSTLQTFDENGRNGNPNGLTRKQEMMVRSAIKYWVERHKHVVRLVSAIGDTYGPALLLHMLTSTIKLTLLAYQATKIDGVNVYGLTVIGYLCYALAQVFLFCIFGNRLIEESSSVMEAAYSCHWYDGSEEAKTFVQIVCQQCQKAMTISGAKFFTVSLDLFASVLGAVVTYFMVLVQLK
pIC50: −log10 of the molar value.
Reported pIC50 is given for each of the following molecules.

Consider the reported pIC50 for these molecules:
[
  {
    "SMILES RECORD": "CSc1nc(NC(C)C)nc(NC(C)C)n1",
    "ATTRIBUTE MEASURED": "pIC50",
    "VAL": "4.70 to 5.70"
  },
  {
    "SMILES RECORD": "CC(C)Nc1nc(NC(C)C)nc(C(F)(F)F)n1",
    "ATTRIBUTE MEASURED": "pIC50",
    "VAL": "< 4.70"
  },
  {
    "SMILES RECORD": "CCNc1nc(NC(C)C)nc(SC)n1",
    "ATTRIBUTE MEASURED": "pIC50",
    "VAL": "4.70 to 5.70"
  }
]

Request: Which pIC50 value belongs to "CCNc1nc(NCC)nc(SC)n1" ?
Result: < 4.70

Request: Reported pIC50, molecule "COc1nc(NC(C)C)nc(NC(C)C)n1" : ____
Result: > 7.00

Request: Param item = "CCN(CC)C(=O)Oc1ccc2c(ccn2Cc2ccc(Cl)cc2)c1NC(=O)C1CC1" ; retrieve measured pIC50.
Result: < 6.00

Request: # input molecule: "CC(C)Nc1nc(Cl)nc(NCc2ccccc2)n1" ; wanted: its pIC50
Result: < 4.30

Request: Look up pIC50 for this molecule: "CCN(CC)C(=O)Oc1ccc2c(ccn2Cc2cccc(C)c2)c1NC(=O)CCCCC(=O)OC"
Result: > 7.00

Request: So what's the measured pIC50 for this one? "CCN(CC)C(=O)Oc1ccc2c(ccn2Cc2ccccc2Cl)c1NC(=O)CCCCC(=O)OC"
Result: > 7.00

Request: Suppose we examine the molecule "Cc1nc(NC(C)C)nc(NC(C)C)n1" ; what pIC50 value has been reported?
Result: 4.30 to 4.70

Request: pIC50 lookup needed for "CCNc1nc(Cl)nc(NC(C)C)n1" , thanks.
Result: < 4.70

Request: Would you mind telling me what pIC50 value was observed for "CC(C)Nc1nc(Cl)nc(NC(C)C)n1" ?
Result: < 3.66

Request: Which pIC50 is listed for "CC(C)Nc1nc(Cl)nc(N(C)C(C)C)n1" ?
Result: < 4.70

---

Molecular target: serotonin receptor (5HT3) (Mus musculus)
Construct: Full-length cDNAs for mosquito (Anopheles gambiae) odorant receptor; expressed in transfected cells
Sequence (P23979 24-489): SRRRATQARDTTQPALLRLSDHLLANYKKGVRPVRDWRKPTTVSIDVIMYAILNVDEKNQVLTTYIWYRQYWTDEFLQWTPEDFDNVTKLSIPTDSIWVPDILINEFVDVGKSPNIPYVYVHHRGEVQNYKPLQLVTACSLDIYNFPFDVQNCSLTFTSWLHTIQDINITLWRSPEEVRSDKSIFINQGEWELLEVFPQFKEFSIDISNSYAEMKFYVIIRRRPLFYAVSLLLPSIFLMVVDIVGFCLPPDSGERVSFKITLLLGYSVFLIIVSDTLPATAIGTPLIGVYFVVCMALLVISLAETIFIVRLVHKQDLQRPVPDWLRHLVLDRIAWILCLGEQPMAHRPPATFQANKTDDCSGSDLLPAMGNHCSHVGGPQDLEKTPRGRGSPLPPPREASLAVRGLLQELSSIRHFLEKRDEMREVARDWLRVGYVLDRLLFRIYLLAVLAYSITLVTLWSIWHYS
Test: Ca2+-imaging of stable Flip-In T-Rex cell line 5HT3
Type: cell-based
Conditions: compound applied at 4 μM; read-out: Percent Inhibition 5HT3
Examples of compounds with documented inhibition at 4 µM follow.

[
  {
    "COMPOUND": "COc1nc(NC(C)C)nc(NC(C)C)n1 [RU-0001534]",
    "ASSAY TARGET": "serotonin receptor (5HT3) (Mus musculus)",
    "inhibition at 4 µM": "26 to 50%"
  },
  {
    "COMPOUND": "CCN(CC)c1onc(-c2ccccc2)c1CN(CC1CCCO1)C(=O)c1ccco1 (centres unmarked) [RU-0036855]",
    "ASSAY TARGET": "serotonin receptor (5HT3) (Mus musculus)",
    "inhibition at 4 µM": "< 25%"
  },
  {
    "COMPOUND": "O=C(c1ccco1)N(Cc1ccco1)Cc1nccn1Cc1ccccc1F [RU-0047694]",
    "ASSAY TARGET": "serotonin receptor (5HT3) (Mus musculus)",
    "inhibition at 4 µM": "26 to 50%"
  },
  {
    "COMPOUND": "COCCN(Cc1cc(Cl)ccc1OS(=O)(=O)c1ccc(F)cc1)C(=O)C1CCC1 [RU-0035287]",
    "ASSAY TARGET": "serotonin receptor (5HT3) (Mus musculus)",
    "inhibition at 4 µM": "26 to 50%"
  }
]

// switching to the query compound
Request: Report inhibition at 4 µM for CC(NC(=O)c1cc2n(n1)CCN(Cc1c(Cl)cccc1Cl)C2=O)c1ccccc1 (centres unmarked) [RU-0045115] tested on serotonin receptor (5HT3) (Mus musculus).
Result: < 25%
